# Test system: NIM1;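 also: KINOMEscan kinase panel screen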
# Construct: gene MGC42105
# test.parameters: concentration: 1 μM, replicates: in singlicate; n = 1
experimental.readout: %Inh (%)

molecule	experimental.readout	reading
O=C1NC(=O)C(N2CCc3ccccc32)=C1c1cccc(Cl)c1	%Inh	0
Cl.Nc1ncnc2occ(-c3ccc(NC(=O)Nc4cc(C(F)(F)F)ccc4F)cc3)c12	%Inh	28
O=C(Nc1cccc(-c2nn3ncccc3c2-c2ccnc(Nc3cccc(C(F)(F)F)c3)n2)c1)c1c(F)cccc1F	%Inh	25
O=c1cc(N2CCOCC2)nc2n(Cc3cccc(F)c3)ccn12	%Inh	0
COC(=O)Nc1nc2cc(Oc3ccc(NC(=O)Nc4cc(F)ccc4F)cc3)ccc2[nH]1.Cl	%Inh	30
Cc1nnc(-c2ccc3ncc(-c4ccc(S(C)=O)cc4)n3c2)o1 (stereo not shown)	%Inh	0
CN1c2ccc(NCc3ccc(F)cc3)cc2-c2c(cnn2C)S1(=O)=O	%Inh	4
CN1c2ccc(CNc3ccc(F)cc3)cc2-c2c(cnn2C)S1(=O)=O	%Inh	0
COc1ccc(Nc2ncc(C#N)c(Nc3ccccc3C(N)=O)n2)cc1N1CCN(C)CC1.Cl	%Inh	99.9
Cc1c2ccc(N(C)c3ccnc(Nc4cccc(S(N)(=O)=O)c4)n3)cc2nn1Cc1ccccc1.Cl.Cl	%Inh	0
